biological target: DNA topoisomerase 1 (Homo sapiens); assay: Inhibition of human DNA topoisomerase 1
Sequence (P11387 whole entry): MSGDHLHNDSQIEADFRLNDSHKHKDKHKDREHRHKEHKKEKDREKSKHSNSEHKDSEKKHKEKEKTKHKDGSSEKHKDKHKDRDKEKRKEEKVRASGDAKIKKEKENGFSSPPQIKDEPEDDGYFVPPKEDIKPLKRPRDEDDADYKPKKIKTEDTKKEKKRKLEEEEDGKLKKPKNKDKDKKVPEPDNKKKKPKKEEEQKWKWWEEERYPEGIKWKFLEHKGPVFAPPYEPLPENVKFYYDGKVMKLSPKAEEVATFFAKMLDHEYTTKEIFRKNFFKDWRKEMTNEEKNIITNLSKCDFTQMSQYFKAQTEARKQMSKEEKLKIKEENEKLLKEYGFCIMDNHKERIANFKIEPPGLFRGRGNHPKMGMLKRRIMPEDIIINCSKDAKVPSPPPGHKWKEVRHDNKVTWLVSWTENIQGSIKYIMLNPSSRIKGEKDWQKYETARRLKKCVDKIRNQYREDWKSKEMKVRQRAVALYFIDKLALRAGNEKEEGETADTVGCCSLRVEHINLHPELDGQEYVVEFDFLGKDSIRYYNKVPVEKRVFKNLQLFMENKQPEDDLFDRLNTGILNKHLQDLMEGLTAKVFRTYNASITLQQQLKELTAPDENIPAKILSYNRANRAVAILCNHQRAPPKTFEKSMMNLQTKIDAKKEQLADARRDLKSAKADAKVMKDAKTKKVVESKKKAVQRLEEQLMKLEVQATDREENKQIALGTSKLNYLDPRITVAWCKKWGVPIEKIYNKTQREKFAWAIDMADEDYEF
Endpoint name: IC50 (nM)
Give the value in nM but do not write nM after it.

[Q] Return reported IC50. Input compound: `CCCCCCCCCCCCCCCCC/C=C\CC/C=C\CCCC(=O)O`
[A] 900
